PROCEDURE SUMMARY: AUC (0 to t) in dog at 1 mg/kg, po
Assay type: ADME, organism-based, Canis lupus familiaris
EXPERIMENTAL SETUP: in vivo
MEASURED QUANTITY: AUC(0-t) (µM·h)
Your answer is read as µM·h, so omit the unit and give the number.

Data request: Requested read-out: AUC(0-t). Entry: "Cc1c([C@@H](O)CN2CCC3(CC2)CCN(c2cnc(S(C)(=O)=O)cn2)C3)ccc2c1COC2=O"
Data returned: 0.75

----------
Species on record: Rattus norvegicus
EXPERIMENTAL SETUP: in vivo, po, 1 mg/kg
# AUC/dose annotations
Your answer is read as µM·kg·h/mg, so omit the unit and give the number.

Data request: Requested read-out: AUC/dose. Entry: "Cc1c([C@@H](O)CN2CCC3(CC2)CC(=O)N(c2ccc(S(C)(=O)=O)cn2)C3)ccc2c1COC2=O"
Data returned: 0.5

Data request: Requested read-out: AUC/dose. Entry: "Cc1c([C@@H](O)CN2CCC3(CC2)CCN(c2cnc(S(C)(=O)=O)cn2)C3)ccc2c1COC2=O"
Data returned: 0.4

Data request: Requested read-out: AUC/dose. Entry: "Cc1c([C@@H](O)CN2CCC3(CC2)CCN(c2ccc(S(C)(=O)=O)cn2)C3)ccc2c1COC2=O"
Data returned: 0.7

Data request: Requested read-out: AUC/dose. Entry: "Cc1c([C@@H](O)CN2CCC3(CC2)CCN(c2ccc(S(C)(=O)=O)nc2)C3)ccc2c1COC2=O"
Data returned: 0.7

Data request: Requested read-out: AUC/dose. Entry: "Cc1c([C@@H](O)CN2CCC3(CC2)CCN(c2ccc(C#N)cn2)C3)ccc2c1COC2=O"
Data returned: 2

Data request: Requested read-out: AUC/dose. Entry: "Cc1c([C@@H](O)CN2CCC3(CC2)CC(=O)N(c2cnc(S(C)(=O)=O)cn2)C3)ccc2c1COC2=O"
Data returned: 0.5

----------
PROCEDURE SUMMARY: Clearance in dog at 1 mg/kg, po or 0.5 mg/kg, iv
Assay type: ADME, organism-based, Canis lupus familiaris
EXPERIMENTAL SETUP: in vivo
MEASURED QUANTITY: clearance
Write your answer as a measured quantity: the number, then the unit.

Data request: Requested read-out: clearance. Entry: "Cc1c([C@@H](O)CN2CCC3(CC2)CCN(c2cnc(S(C)(=O)=O)cn2)C3)ccc2c1COC2=O"
Data returned: 42 mL/min/kg

----------
PROCEDURE SUMMARY: Drug uptake in plasma of rat spontaneous hypertensive model at 3 mg/kg, po measured after 3 days
Format: ADME, organism-based
EXPERIMENTAL SETUP: spontaneously hypertensive rat
# concentration at 72 h annotations
Your answer is read as nM, so omit the unit and give the number.

// solved cases for concentration at 72 h follow
Cc1c([C@@H](O)CN2CCC3(CC2)CCN(c2ccc(S(C)(=O)=O)cn2)C3)ccc2c1COC2=O = 162
Cc1c([C@@H](O)CN2CCC3(CC2)CCN(c2cnc(S(C)(=O)=O)cn2)C3)ccc2c1COC2=O = 78
Cc1c([C@@H](O)CN2CCC3(CC2)CCN(c2ccc(S(C)(=O)=O)nc2)C3)ccc2c1COC2=O = 390
Cc1c([C@@H](O)CN2CCC3(CC2)CC(=O)N(c2cnc(S(C)(=O)=O)cn2)C3)ccc2c1COC2=O = 232

// switching to the query compound
Data request: Requested read-out: concentration at 72 h. Entry: "Cc1c([C@@H](O)CN2CCC3(CC2)CC(=O)N(c2ccc(S(C)(=O)=O)cn2)C3)ccc2c1COC2=O"
Data returned: 220

----------
# bioavailability annotations
PROCEDURE SUMMARY: in vivo
EXPERIMENTAL SETUP: rat, po, 1 mg/kg
Your answer is read as %, so omit the unit and give the number.

Data request: Requested read-out: bioavailability. Entry: "Cc1c([C@@H](O)CN2CCC3(CC2)CCN(c2ccc(S(C)(=O)=O)nc2)C3)ccc2c1COC2=O"
Data returned: 96

Data request: Requested read-out: bioavailability. Entry: "Cc1c([C@@H](O)CN2CCC3(CC2)CC(=O)N(c2ccc(S(C)(=O)=O)cn2)C3)ccc2c1COC2=O"
Data returned: 48

Data request: Requested read-out: bioavailability. Entry: "Cc1c([C@@H](O)CN2CCC3(CC2)CCN(c2cnc(S(C)(=O)=O)cn2)C3)ccc2c1COC2=O"
Data returned: 37

Data request: Requested read-out: bioavailability. Entry: "Cc1c([C@@H](O)CN2CCC3(CC2)CCN(c2ccc(S(C)(=O)=O)cn2)C3)ccc2c1COC2=O"
Data returned: 51

Data request: Requested read-out: bioavailability. Entry: "Cc1c([C@@H](O)CN2CCC3(CC2)CC(=O)N(c2cnc(S(C)(=O)=O)cn2)C3)ccc2c1COC2=O"
Data returned: 46

Data request: Requested read-out: bioavailability. Entry: "Cc1c([C@@H](O)CN2CCC3(CC2)CCN(c2ccc(C#N)cn2)C3)ccc2c1COC2=O"
Data returned: 100

----------
Organism: Rattus norvegicus
EXPERIMENTAL SETUP: in vivo, iv, 0.5 mg/kg
MEASURED QUANTITY: clearance (mL/min/kg)
Your answer is read as mL/min/kg, so omit the unit and give the number.

// solved cases for clearance follow
Cc1c([C@@H](O)CN2CCC3(CC2)CCN(c2ccc(C#N)cn2)C3)ccc2c1COC2=O = 19.3
Cc1c([C@@H](O)CN2CCC3(CC2)CCN(c2ccc(S(C)(=O)=O)nc2)C3)ccc2c1COC2=O = 23
Cc1c([C@@H](O)CN2CCC3(CC2)CC(=O)N(c2cnc(S(C)(=O)=O)cn2)C3)ccc2c1COC2=O = 30
Cc1c([C@@H](O)CN2CCC3(CC2)CCN(c2cnc(S(C)(=O)=O)cn2)C3)ccc2c1COC2=O = 37
Cc1c([C@@H](O)CN2CCC3(CC2)CCN(c2ccc(S(C)(=O)=O)cn2)C3)ccc2c1COC2=O = 24

Data request: Requested read-out: clearance. Entry: "Cc1c([C@@H](O)CN2CCC3(CC2)CC(=O)N(c2ccc(S(C)(=O)=O)cn2)C3)ccc2c1COC2=O"
Data returned: 34

----------
# Activity annotations
System: Rattus norvegicus
PROCEDURE SUMMARY: Antihypertensive activity in rat spontaneous hypertensive model assessed as change in systolic blood pressure at 3 mg/kg, po measured after 3 days
Assay type: functional
Your answer is read as mmHg, so omit the unit and give the number.

Cc1c([C@@H](O)CN2CCC3(CC2)CCN(c2cnc(S(C)(=O)=O)cn2)C3)ccc2c1COC2=O = -19.9
Cc1c([C@@H](O)CN2CCC3(CC2)CCN(c2ccc(S(C)(=O)=O)cn2)C3)ccc2c1COC2=O = -20.3
Cc1c([C@@H](O)CN2CCC3(CC2)CC(=O)N(c2ccc(S(C)(=O)=O)cn2)C3)ccc2c1COC2=O = -15.5

Data request: Requested read-out: Activity. Entry: "Cc1c([C@@H](O)CN2CCC3(CC2)CCN(c2ccc(S(C)(=O)=O)nc2)C3)ccc2c1COC2=O"
Data returned: 0.1

Data request: Requested read-out: Activity. Entry: "Cc1c([C@@H](O)CN2CCC3(CC2)CC(=O)N(c2cnc(S(C)(=O)=O)cn2)C3)ccc2c1COC2=O"
Data returned: -16

----------
PROCEDURE SUMMARY: in vivo
EXPERIMENTAL SETUP: rat, po, 1 mg/kg
MEASURED QUANTITY: fraction unbound
// no unit, no text: just the number

Data request: Requested read-out: fraction unbound. Entry: "Cc1c([C@@H](O)CN2CCC3(CC2)CCN(c2ccc(C#N)cn2)C3)ccc2c1COC2=O"
Data returned: 0.27

----------
PROCEDURE SUMMARY: in vivo
EXPERIMENTAL SETUP: rat
# half-life annotations
Your answer is read as h, so omit the unit and give the number.

// solved cases for half-life follow
Cc1c([C@@H](O)CN2CCC3(CC2)CCN(c2cnc(S(C)(=O)=O)cn2)C3)ccc2c1COC2=O = 2.1
Cc1c([C@@H](O)CN2CCC3(CC2)CCN(c2ccc(C#N)cn2)C3)ccc2c1COC2=O = 3
Cc1c([C@@H](O)CN2CCC3(CC2)CC(=O)N(c2ccc(S(C)(=O)=O)cn2)C3)ccc2c1COC2=O = 2.1
Cc1c([C@@H](O)CN2CCC3(CC2)CCN(c2ccc(S(C)(=O)=O)cn2)C3)ccc2c1COC2=O = 1.8
Cc1c([C@@H](O)CN2CCC3(CC2)CC(=O)N(c2cnc(S(C)(=O)=O)cn2)C3)ccc2c1COC2=O = 2.4

// switching to the query molecule
Data request: Requested read-out: half-life. Entry: "Cc1c([C@@H](O)CN2CCC3(CC2)CCN(c2ccc(S(C)(=O)=O)nc2)C3)ccc2c1COC2=O"
Data returned: 2

----------
TARGET: ATP-sensitive inward rectifier potassium channel 1 (Homo sapiens)
Sequence (P48048 whole entry): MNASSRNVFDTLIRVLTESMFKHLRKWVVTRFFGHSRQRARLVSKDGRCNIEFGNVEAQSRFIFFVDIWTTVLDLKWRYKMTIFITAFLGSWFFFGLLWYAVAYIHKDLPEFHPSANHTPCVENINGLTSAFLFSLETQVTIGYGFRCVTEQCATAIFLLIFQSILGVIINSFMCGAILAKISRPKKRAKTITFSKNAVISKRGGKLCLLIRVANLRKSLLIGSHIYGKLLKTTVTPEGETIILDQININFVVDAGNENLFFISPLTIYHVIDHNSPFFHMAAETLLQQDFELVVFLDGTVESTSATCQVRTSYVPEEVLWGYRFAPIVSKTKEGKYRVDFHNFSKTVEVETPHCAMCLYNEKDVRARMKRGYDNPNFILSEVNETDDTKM
PROCEDURE SUMMARY: Inhibition of human ROMK expressed in HEK293 cells after 30 mins by thallium flux assay
Format: cell-based
EXPERIMENTAL SETUP: read-out: IC50
# pIC50 annotations
pIC50 is defined as minus the log10 of a concentration measured in mol/L.

CSc1ccc(N2CCC3(CCN(C[C@H](O)c4ccc5c(c4C)COC5=O)CC3)C2)cn1 = 6.05
Cc1c([C@@H](O)CN2CCC3(CC2)CCN(c2ccc(S(C)(=O)=O)nc2)C3)ccc2c1COC2=O = 6.65
Cc1c([C@@H](O)CN2CCC3(CC2)CCN(c2ccc(C#N)cn2)CC3)ccc2c1COC2=O = 7.33
Cc1c([C@@H](O)CN2CCC3(CC2)CC(=O)N(c2ccc(C#N)cn2)C3)ccc2c1COC2=O = 8.00
Cc1c([C@@H](O)CN2CCC3(CC2)CCN(c2cncc(C#N)c2)C3)ccc2c1COC2=O = 8.00
Cc1c([C@@H](O)CN2CCC3(CC2)CC(=O)N(c2cncc(C#N)c2)C3)ccc2c1COC2=O = 8.00

Data request: Requested read-out: pIC50. Entry: "COc1ccc(N2CCC3(CCN(C[C@H](O)c4ccc5c(c4C)COC5=O)CC3)C2)cn1"
Data returned: 6.00

Data request: Requested read-out: pIC50. Entry: Cc1c([C@@H](O)CN2CCC3(CC2)CCN(c2ccc([S+](C)[O-])nc2)C3)ccc2c1COC2=O (stereo partly drawn)
Data returned: 5.19
